Source listed as the supplement of paper PMC10515830.

Tested on: Danio rerio larvae (5 dpf)
Experiment: difference in activity during first hour vs DMSO (percentage points); higher = more activity than DMSO
Settings: 10 µM; exposure time 6 h
measurement.type: difference in activity during first hour
Form: value (number only, do not type unit).

Illustrative cases are given below, each with its answer.
compound | difference in activity during first hour
CCC1=C[C@@H]2CN(C1)Cc1c([nH]c3ccccc13)[C@@](C(=O)OC)(c1cc3c(cc1OC)N(C)[C@H]1[C@@](O)(C(=O)OC)[C@H](OC(C)=O)[C@]4(CC)C=CCN5CC[C@]31[C@@H]54)C2 [Vinorelbine (tartrate)] | 3.25
CO[C@H]1C[C@@H]2CC[C@@H](C)[C@@](O)(O2)C(=O)C(=O)N2CCCC[C@H]2C(=O)O[C@H]([C@H](C)C[C@@H]2CC[C@@H](OC(=O)C(C)(CO)CO)[C@H](OC)C2)CC(=O)[C@H](C)/C=C(\C)[C@@H](O)[C@@H](OC)C(=O)[C@H](C)C[C@H](C)/C=C/C=C/C=C/1C [Temsirolimus] | -1.53

Q. If you can, please state the reported difference in activity during first hour value of CCC(=O)NC[C@@H]1C[C@H]1c1cccc2c1CCO2 [Tasimelteon] .
A. -17.9

Q. Let us now turn to CC(C)(O)CNc1nc(Nc2ccnc(C(F)(F)F)c2)nc(-c2cccc(C(F)(F)F)n2)n1 [Enasidenib]
A. 12.8

Q. Same question for CCN(CC)CCNC(=O)c1c(C)[nH]c(/C=C2\C(=O)Nc3ccc(F)cc32)c1C [Sunitinib (malate)] please.
A. -4
